These data points were gathered from the NIST ThermoML archive (doi:10.1021/je300507h).

- Experimental Setup: 333.15 K; 101.33 kPa; Liquid; Wayne-Kerr 6430B Autobalance Bridge electrode
Property Name: electrical conductivity (S/m)

molecule="CCC(=O)[O-].CCCC[n+]1ccn(C)c1 [3-butyl-1-methyl-1H-imidazolium propanoate]" display_unit=S/m observed=0.306

[a] CCCC[n+]1ccn(C)c1.O=C[O-] [3-butyl-1-methyl-1H-imidazolium formate]
[b] CC(=O)[O-].CCCCn1cc[n+](C)c1 [1-butyl-3-methylimidazolium acetate]
[c] CCCC(=O)[O-].CCCC[n+]1ccn(C)c1 [3-butyl-1-methyl-1H-imidazolium butanoate]
**Query** List items by electrical conductivity in falling order. Respond with an ordered listing of the labels, as requested.
**Result** a, b, c
(a: 0.738 S/m, b: 0.36 S/m, c: 0.208 S/m)
